Assay: rescue of polyQ-huntingtin neuronal dysfunction in worms, whole organism, C. elegans mechanosensory neurons, N-terminal huntingtin (AID 1599)
Details: touch response, stronger effect = higher value
Measured potencies and affinities stand elsewhere. Peptide text beside a SMILES is read from it. * marks the point of attachment. For = O=C*
QUANTITY_MEASURED: rescue above control

COMPOUND: CCn1cc(C(=O)O)c(=O)c2ccc(C)nc21
RECORDED_RESULT: -12.9
//
COMPOUND: CC(Oc1ccccc1)C(=O)N[C@@H]1C(=O)N2[C@@H]1SC(C)(C)[C@@H]2C(=O)O (stereo not given in full)
RECORDED_RESULT: -10.5
//
COMPOUND: CC(C)=CCc1c2c(c3occ(-c4ccc(O)c(O)c4)c(=O)c3c1O)C=CC(C)(C)O2
RECORDED_RESULT: -11.4
//
COMPOUND: CC[C@H]1OC(=O)[C@H](C)[C@@H](O[C@H]2C[C@@](C)(OC)[C@@H](O)[C@H](C)O2)[C@H](C)[C@@H](O[C@@H]2O[C@H](C)C[C@H](N(C)C)[C@H]2O)[C@](C)(O)C[C@@H](C)/C(=N\OCOCCOC)[C@H](C)[C@@H](O)[C@]1(C)O
RECORDED_RESULT: 1.9
//
COMPOUND: C=C[C@H]1CN2CC[C@H]1C[C@@H]2[C@@H](O)c1ccnc2ccc(OC)cc12
RECORDED_RESULT: -0.47
//
COMPOUND: COc1c(C)c2c(c(O)c1C/C=C(\C)CCC(=O)O)C(=O)OC2
RECORDED_RESULT: 6.21
//
COMPOUND: CSCCC(NC=O)C(=O)NC(Cc1ccccc1)C(=O)O (stereo not drawn) (For-Met-Phe-OH; configuration not given here)
RECORDED_RESULT: 4.29
//
COMPOUND: COc1cc(CNC(=O)CCCC/C=C/C(C)C)ccc1O
RECORDED_RESULT: 10.3
//
COMPOUND: CC(=O)N[C@@H](CCC(=O)O)C(=O)O
RECORDED_RESULT: 9.63
//
COMPOUND: NC(=NCc1ccccc1)NC(=O)c1nc(Cl)c(N)nc1N
RECORDED_RESULT: 5.46
